Give viability at 72 h, 10 µM for every item shown.
- test-details: Cytotoxicity assay (CellTiter-Glo) on normal human dermal fibroblasts
- Type: cell-based
- condition-notes: normal human dermal fibroblasts (NHDF), 10 μM, untreated control = 100%, read-out: NHDF Viability 10 μM
Unit % implied. Number only.

Q: Return viability at 72 h, 10 µM (reported value) for this compound: O=C(OC[C@@H]1CCNC1)[C@@H]1[C@H]2C[C@H]3c4[nH]c5ccccc5c4CCN3C[C@@H]2CC[C@@H]1O [Compound 4i]
Ans: 107

Q: Return viability at 72 h, 10 µM (reported value) for this compound: O=C(OCC1CNC1)[C@@H]1[C@H]2C[C@H]3c4[nH]c5ccccc5c4CCN3C[C@@H]2CC[C@@H]1O [Compound 4f]
Ans: 119

Q: Return viability at 72 h, 10 µM (reported value) for this compound: CC(C)(C)OC(=O)[C@@H]1[C@H]2C[C@H]3c4[nH]c5ccccc5c4CCN3C[C@@H]2CC[C@@H]1O [Compound 3e]
Ans: 113

Q: Return viability at 72 h, 10 µM (reported value) for this compound: O=C(O[C@@H]1CCNC1)[C@@H]1[C@H]2C[C@H]3c4[nH]c5ccccc5c4CCN3C[C@@H]2CC[C@@H]1O [Compound 4k]
Ans: 91
